// reverse-splicing fitness lookup, one value per entry
B1: Azoarcus group I ribozyme (parent)
chain: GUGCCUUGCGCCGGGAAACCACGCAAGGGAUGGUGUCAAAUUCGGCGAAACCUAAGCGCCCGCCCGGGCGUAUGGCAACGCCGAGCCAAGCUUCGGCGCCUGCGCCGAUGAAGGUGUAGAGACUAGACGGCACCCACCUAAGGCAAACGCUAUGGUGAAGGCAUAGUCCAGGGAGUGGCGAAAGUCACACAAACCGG

# Variants of: B1
# method: reverse-splicing fitness (ratio to wild type); higher = more active; in vitro selection; Mg2+ level not given

Some variants with known reverse-splicing fitness results, for comparison:
- changes: "C82G A111U A120C C169U U176C"
  reverse-splicing fitness: 0.0166
- changes: "C82G A111U A145C C150A C169A U176A"
  reverse-splicing fitness: 0.0125
- changes: "A111U A120U A145U C150G C169U U176A"
  reverse-splicing fitness: 0.00295

Param item = A111C A120G A145G C150A C169A ; retrieve measured reverse-splicing fitness.
0.02

What about C82A A111G A120U A145G C150A ?
0.00991

What about A111C A120G A145U C169A U176A ?
0.0166

What about A111G A120C A145C C150U C169U U176C ?
0.0214

What about A111C A120C A145U C169G U176A ?
0.0103

What about C82U A111G A120G A145G C150A ?
0.00878
